- target_entity: IKZF1 (Homo sapiens)
- Construct: expressed in transfected cells; host or cells: Flp-In 293
- method_summary: Cellular degradation assay, eGFP-IKZF1Δ fusion with mCherry reporter in Flp-In 293 cells
- Format: cell-based
- experimental_context: compound concentration 2.00E−06; 5 h incubation; n=1
- Description: IKZF1Δ, IKZF2Δ, GSPT1 and SALL4 ZnF1-2 were subcloned into mammalian pcDNA5/FRT Vector (Ampicillin and Hygromycin B resistant) modified to contain MCS-eGFP-P2A-mCherry. […] Following 2-3 passage cycle, FACS (FACSAria™ II, BD) was used to enrich for cells expressing eGFP and mCherry. […] The resulting images were analyzed using CellProfiler™. […] The fraction of GFP-positive cells/mCherry-positive cells in each well was then calculated, and the green and red images were rescaled for visualization. […]
# Lookup of reported IKZF1 GFP/RFP Relative Abundance keyed by entry
# respond with the number and nothing more

compound	IKZF1 GFP/RFP Relative Abundance
O=C1CCC(N2C(=O)C=C(Nc3cccc(CNC(=O)Nc4ccc(Cl)c(Cl)c4)c3)C2=O)C(=O)N1 (stereo not shown)	0.097
Cc1ccc(CNC(=O)Cc2cccc(NC3=CC(=O)N(C4CCC(=O)NC4=O)C3=O)c2)cc1Cl (stereo not shown)	0.057
Cc1cc(CNC(=O)NCc2cccc(NC3=CC(=O)N(C4CCC(=O)NC4=O)C3=O)c2)ccc1Cl (stereo not shown)	0.085
Cc1ccc(NC(=O)NCCc2cccc(NC3=CC(=O)N(C4CCC(=O)NC4=O)C3=O)c2)cc1Cl (stereo not shown)	0.098

*Q* Request body: readout IKZF1 GFP/RFP Relative Abundance, system IKZF1 (Homo sapiens), query Cc1ccc(NC(=O)Nc2ccc(NC3=CC(=O)N(C4CCC(=O)NC4=O)C3=O)cc2)cc1Cl (stereo not shown) . Return the value.
*A* 0.536

*Q* Lab note: need IKZF1 GFP/RFP Relative Abundance for Cc1ccc(NC(=O)NCCCNC2=CC(=O)N(C3CCC(=O)NC3=O)C2=O)cc1Cl (stereo not shown) on IKZF1 (Homo sapiens), anyone have it?
*A* 0.298

---

- target_entity: IKZF1 (Homo sapiens, UniProt Q13422)
- Construct: expressed in transfected cells; host or cells: Flp-In 293
- Sequence (Q13422 83-213 isoform Q13422-7 limits assumed): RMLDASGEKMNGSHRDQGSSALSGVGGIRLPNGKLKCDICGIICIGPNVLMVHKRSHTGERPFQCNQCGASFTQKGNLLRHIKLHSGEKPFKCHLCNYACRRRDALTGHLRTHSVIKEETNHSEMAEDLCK
- Sequence (Q96SW2 whole entry partner): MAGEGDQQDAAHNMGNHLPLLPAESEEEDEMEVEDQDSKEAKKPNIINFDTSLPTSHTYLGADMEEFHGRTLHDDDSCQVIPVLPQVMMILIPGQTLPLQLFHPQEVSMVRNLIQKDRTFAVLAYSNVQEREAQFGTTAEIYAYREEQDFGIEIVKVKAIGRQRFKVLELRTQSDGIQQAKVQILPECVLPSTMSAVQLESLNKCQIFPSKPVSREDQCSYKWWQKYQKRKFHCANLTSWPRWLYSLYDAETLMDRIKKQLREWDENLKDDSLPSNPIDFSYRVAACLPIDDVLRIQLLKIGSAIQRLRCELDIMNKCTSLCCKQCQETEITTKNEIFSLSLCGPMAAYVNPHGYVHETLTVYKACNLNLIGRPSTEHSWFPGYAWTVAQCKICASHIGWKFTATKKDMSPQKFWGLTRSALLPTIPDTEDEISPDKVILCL
- Sequence (Q16531 2-1140 partner limits assumed): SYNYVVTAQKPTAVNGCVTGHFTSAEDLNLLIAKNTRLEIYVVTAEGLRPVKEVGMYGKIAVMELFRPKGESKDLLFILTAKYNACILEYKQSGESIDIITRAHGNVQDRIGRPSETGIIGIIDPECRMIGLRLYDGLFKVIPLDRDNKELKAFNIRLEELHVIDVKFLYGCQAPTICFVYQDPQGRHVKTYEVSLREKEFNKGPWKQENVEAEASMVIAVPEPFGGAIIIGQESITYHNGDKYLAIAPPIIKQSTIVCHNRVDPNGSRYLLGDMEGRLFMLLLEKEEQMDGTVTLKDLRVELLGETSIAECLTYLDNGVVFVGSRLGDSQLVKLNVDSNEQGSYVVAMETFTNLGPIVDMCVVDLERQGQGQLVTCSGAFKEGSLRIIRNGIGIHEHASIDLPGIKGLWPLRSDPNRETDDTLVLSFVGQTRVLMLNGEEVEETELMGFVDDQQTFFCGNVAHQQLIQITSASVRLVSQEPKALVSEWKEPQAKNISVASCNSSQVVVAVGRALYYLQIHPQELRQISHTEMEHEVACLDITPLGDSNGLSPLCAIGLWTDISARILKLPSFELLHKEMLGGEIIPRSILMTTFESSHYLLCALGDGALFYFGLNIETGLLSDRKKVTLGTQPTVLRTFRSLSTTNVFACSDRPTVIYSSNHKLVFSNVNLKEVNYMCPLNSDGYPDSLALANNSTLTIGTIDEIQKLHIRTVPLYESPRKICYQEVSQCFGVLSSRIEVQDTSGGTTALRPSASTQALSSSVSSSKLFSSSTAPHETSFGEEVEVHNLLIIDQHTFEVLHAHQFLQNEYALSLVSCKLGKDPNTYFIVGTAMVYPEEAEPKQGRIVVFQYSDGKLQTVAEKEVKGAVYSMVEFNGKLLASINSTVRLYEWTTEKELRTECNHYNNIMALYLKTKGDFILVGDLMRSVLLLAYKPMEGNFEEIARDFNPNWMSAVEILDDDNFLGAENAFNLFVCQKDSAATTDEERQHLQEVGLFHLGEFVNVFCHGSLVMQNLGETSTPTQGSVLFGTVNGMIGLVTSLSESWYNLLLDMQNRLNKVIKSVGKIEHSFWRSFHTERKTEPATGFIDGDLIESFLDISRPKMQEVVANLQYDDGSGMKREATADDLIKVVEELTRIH
- method_summary: Cellular degradation assay, eGFP-IKZF1Δ fusion with mCherry reporter in Flp-In 293 cells
- Type: cell-based
- experimental_context: compound concentration 2.00E−05; 5 h incubation; n=1
measured_metric: IKZF1 GFP/RFP Relative Abundance
When you answer, write just the number.

Worked cases, IKZF1 GFP/RFP Relative Abundance given:
compound	recorded_number
Cc1ccc(NC(=O)Oc2cccc(NC3=CC(=O)N(C4CCC(=O)NC4=O)C3=O)c2)cc1Cl (stereo not shown)	0.861
Cc1ccc(NC(=O)NCc2cccc(NC3=CC(=O)N(C4CCC(=O)NC4=O)C3=O)c2)cc1C (stereo not shown)	0.075
CN(C)C(=O)Cc1ccc(NC2=CC(=O)N(C3CCC(=O)NC3=O)C2=O)cc1 (stereo not shown)	0.687
Cc1ccc(NC(=O)NCc2ccccc2NC2=CC(=O)N(C3CCC(=O)NC3=O)C2=O)cc1Cl (stereo not shown)	0.957
Cc1ccc(NC(=O)CCc2cccc(NC3=CC(=O)N(C4CCC(=O)NC4=O)C3=O)c2)cc1Cl (stereo not shown)	0.110

*Q* Query (compound): O=C(O)CCCNC1=CC(=O)N(C2CCC(=O)NC2=O)C1=O (stereo not shown) ; field requested: IKZF1 GFP/RFP Relative Abundance
*A* 0.842

*Q* Look up IKZF1 GFP/RFP Relative Abundance for this compound: Cc1ccc(NC(=O)NC(C)(C)c2cccc(NC3=CC(=O)N(C4CCC(=O)NC4=O)C3=O)c2)cc1Cl (stereo not shown)
*A* 0.086

*Q* Item under review: Cc1ccc(NC(=O)NCc2cc(NC3=CC(=O)N(C4CCC(=O)NC4=O)C3=O)ccc2OC(=O)N(C)C)cc1Cl (stereo not shown) . Reported IKZF1 GFP/RFP Relative Abundance?
*A* 0.944

*Q* Using the record for Cc1ccc(NC(=O)OCc2cccc(NC3=CC(=O)N(C4CCC(=O)NC4=O)C3=O)c2)cc1Cl (stereo not shown) , report its IKZF1 GFP/RFP Relative Abundance.
*A* 1.041

*Q* Dear colleague, I am looking for the recorded IKZF1 GFP/RFP Relative Abundance of the following compound: O=C1CCC(N2C(=O)C=C(Nc3ccc4cn[nH]c4c3)C2=O)C(=O)N1 (stereo not shown)
*A* 0.748

*Q* What IKZF1 GFP/RFP Relative Abundance value was documented for this compound, O=C1CCC(N2C(=O)C=C(Nc3cccc(CNC(=O)Nc4ccc(Cl)c(Cl)c4)c3)C2=O)C(=O)N1 (stereo not shown) ?
*A* 0.144

*Q* What does the data say about its IKZF1 GFP/RFP Relative Abundance? Entry: Cc1ccc(NC(=O)Nc2cccc(NC3=CC(=O)N(C4CCC(=O)NC4=O)C3=O)c2)cc1Cl (stereo not shown)
*A* 0.996

*Q* Requested read-out: IKZF1 GFP/RFP Relative Abundance. Entry: O=C1CCC(N2C(=O)C=C(Nc3cccc(-c4cc[nH]n4)c3)C2=O)C(=O)N1 (stereo not shown)
*A* 0.254

---

- target_entity: CRBN and Helios (IKZF2) (Homo sapiens, UniProt Q96SW2+Q9UKS7)
- Construct: His (N); Strep (N)
- Sequence (Q96SW2 whole entry): as the sequence (Q96SW2 whole entry partner) above
- Sequence (Q9UKS7 whole entry): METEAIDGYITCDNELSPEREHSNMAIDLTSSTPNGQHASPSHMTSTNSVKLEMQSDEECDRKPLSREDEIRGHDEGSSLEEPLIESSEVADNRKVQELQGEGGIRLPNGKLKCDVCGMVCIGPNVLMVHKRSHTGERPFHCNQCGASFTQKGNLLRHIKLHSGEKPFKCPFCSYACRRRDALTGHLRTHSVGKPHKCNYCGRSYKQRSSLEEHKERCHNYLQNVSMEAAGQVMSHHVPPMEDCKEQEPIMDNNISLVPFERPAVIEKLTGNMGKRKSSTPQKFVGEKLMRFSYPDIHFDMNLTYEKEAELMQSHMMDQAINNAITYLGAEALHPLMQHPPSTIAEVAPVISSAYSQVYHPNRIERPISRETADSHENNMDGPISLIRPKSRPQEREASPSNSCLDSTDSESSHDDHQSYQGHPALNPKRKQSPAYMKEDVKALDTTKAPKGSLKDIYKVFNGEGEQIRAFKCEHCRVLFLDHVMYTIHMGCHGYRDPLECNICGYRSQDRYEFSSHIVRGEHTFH
- method_summary: TR-FRET dimerization assay (CRBN-IKZF2 ternary complex formation)
- Assay type: binding
- experimental_context: compound concentration 6.6667E−05; n=1
Items are presented alongside their recorded TR-FRET-IKZF2 (Normalized to CC-885).
Answer as a number with no unit attached.

Solved entries (count: 5):
compound	TR-FRET-IKZF2 (Normalized to CC-885)
Cc1cc(CNC(=O)NCc2cccc(NC3=CC(=O)N(C4CCC(=O)NC4=O)C3=O)c2)ccc1Cl (stereo not shown)	0.999
CN(C)C(=O)c1ccc(NC2=CC(=O)N(C3CCC(=O)NC3=O)C2=O)cc1 (stereo not shown)	0.077
Cc1ccc(NC(=O)NCc2ccc3c(c2)CN(C2CCC(=O)NC2=O)C3=O)cc1Cl (stereo not shown) [CC-885, reference compound]	1.065
CC(CC(=O)Nc1cccc(C(F)(F)F)c1)c1cccc(NC2=CC(=O)N(C3CCC(=O)NC3=O)C2=O)c1 (stereo not shown)	2.291
Cc1ccc(NC(=O)N(C)Cc2cccc(NC3=CC(=O)N(C4CCC(=O)NC4=O)C3=O)c2)cc1Cl (stereo not shown)	1.559

*Q* Query for CRBN and Helios (IKZF2) (Homo sapiens, UniProt Q96SW2+Q9UKS7): what TR-FRET-IKZF2 (Normalized to CC-885) does the record show for Cc1ccc(NC(=O)Nc2ccc(NC3=CC(=O)N(C4CCC(=O)NC4=O)C3=O)cc2)cc1Cl (stereo not shown) ?
*A* 0.407

---

- target_entity: CRBN and Helios (IKZF2) (Homo sapiens, UniProt Q96SW2+Q9UKS7)
- Construct: His (N); Strep (N)
- method_summary: TR-FRET dimerization assay (CRBN-IKZF2 ternary complex formation)
- Type: binding
- experimental_context: compound concentration 6.6667E−06; n=1
Binary label based on TR-FRET-IKZF2 (Normalized to CC-885) with cut-off 0.6: below gives satisfied, not below gives not satisfied.

A selection of reference data follows.
compound	target_entity	label_value
Cc1ccc(NC(=O)NCCc2cccc(NC3=CC(=O)N(C4CCC(=O)NC4=O)C3=O)c2)cc1Cl (centres unmarked)	CRBN and Helios (IKZF2) (Homo sapiens, UniProt Q96SW2+Q9UKS7)	not satisfied
Cc1ccc(NC(=O)c2cccc(NC3=CC(=O)N(C4CCC(=O)NC4=O)C3=O)c2)cc1Cl (centres unmarked)	CRBN and Helios (IKZF2) (Homo sapiens, UniProt Q96SW2+Q9UKS7)	not satisfied
Cc1ccc(NC(=O)N[C@H](C)c2cccc(NC3=CC(=O)N(C4CCC(=O)NC4=O)C3=O)c2)cc1Cl (some centres unmarked)	CRBN and Helios (IKZF2) (Homo sapiens, UniProt Q96SW2+Q9UKS7)	not satisfied

Next, consider the following compound.
*Q* Given the entry Cc1ccc(NC2=CC(=O)N(C3CCC(=O)NC3=O)C2=O)cc1Cl (centres unmarked) , would its reported TR-FRET-IKZF2 (Normalized to CC-885) be below 0.6?
*A* satisfied

---

Documented TR-FRET-IKZF2 (Normalized to CC-885) across a set of compounds
- target_entity: CRBN and Helios (IKZF2) (Homo sapiens, UniProt Q96SW2+Q9UKS7)
- Construct: His (N); Strep (N)
- method_summary: TR-FRET dimerization assay (CRBN-IKZF2 ternary complex formation)
- Format: binding
- experimental_context: compound concentration 6.6667E−05; n=1
Number only, please.

compound	TR-FRET-IKZF2 (Normalized to CC-885)
O=C1CCC(N2C(=O)C=C(Nc3cnc4ccccc4c3)C2=O)C(=O)N1 (centres unmarked)	0.137

*Q* Returns the measured TR-FRET-IKZF2 (Normalized to CC-885) for the input compound. Input: Cc1ccc(NC(=O)NCCNC2=CC(=O)N(C3CCC(=O)NC3=O)C2=O)cc1Cl (centres unmarked)
*A* 0.170

*Q* Requested read-out: TR-FRET-IKZF2 (Normalized to CC-885). Entry: Cc1ccc(NC(=O)OCCc2cccc(NC3=CC(=O)N(C4CCC(=O)NC4=O)C3=O)c2)cc1Cl (centres unmarked)
*A* 1.017

*Q* Quick check: TR-FRET-IKZF2 (Normalized to CC-885) of Cc1cc(NC2=CC(=O)N(C3CCC(=O)NC3=O)C2=O)ccc1Cl (centres unmarked) ?
*A* 0.485

*Q* Report TR-FRET-IKZF2 (Normalized to CC-885) for Cc1ccc(NC(=O)N[C@@H](C)c2cccc(NC3=CC(=O)N(C4CCC(=O)NC4=O)C3=O)c2)cc1Cl (some centres unmarked) please.
*A* 1.811

*Q* Data request, read-out TR-FRET-IKZF2 (Normalized to CC-885), for O=C1CCC(N2C(=O)C=C(Nc3ccc4cn[nH]c4c3)C2=O)C(=O)N1 (centres unmarked)
*A* 0.274

*Q* Need TR-FRET-IKZF2 (Normalized to CC-885), item Cc1cc(CNC(=O)NC(C)c2cccc(NC3=CC(=O)N(C4CCC(=O)NC4=O)C3=O)c2)ccc1Cl (centres unmarked)
*A* 1.263

*Q* Entry Cc1ccc(NC(=O)NCc2cccc(OC3=CC(=O)N(C4CCC(=O)NC4=O)C3=O)c2)cc1Cl (centres unmarked) : reported TR-FRET-IKZF2 (Normalized to CC-885) = ?
*A* 0.030
